- Tested on: Escherichia coli IAI1
- protocolDetails: fold change of Putrescine concentration vs plate DMSO controls (fold change (ratio)); higher = more amine produced, active = hit call of the paper (significant change in both replicates, either direction)
- details: incubation time: 27 h, anaerobic, 37 °C
Counter-ions that a name gives are not always drawn.
Parameter fold change of Putrescine concentration: see the listing below.
No unit in the answer, please; the number alone is enough.

Below: 3 compounds and their reported fold change of Putrescine concentration.
O=C(Nc1cccc2c(=O)cc(-c3nnn[nH]3)oc12)c1ccc(OCCCCc2ccccc2)cc1 [Pranlukast] (20 µM) :: 1.02
CCN(CC)CCOC(=O)C1(c2ccc([N+](=O)[O-])cc2)CCCC1 [Nitrocaramiphen hydrochloride] (20 µM) :: 1.03
CCCc1cc(C(N)=S)ccn1 [Prothionamide] (20 µM) :: 1.18

Input line: // query fold change of Putrescine concentration value for entry Cc1cccc(Nc2ccncc2S(=O)(=O)NC(=O)NC(C)C)c1 [Torsemide] (20 µM)
Output line: 1.06

Input line: // query fold change of Putrescine concentration value for entry N#Cc1cc(NC(=O)C(=O)O)c(Cl)c(NC(=O)C(=O)O)c1 [Lodoxamide] (20 µM)
Output line: 1.17

Input line: // query fold change of Putrescine concentration value for entry COc1cc([S+](C)[O-])ccc1-c1nc2cccnc2[nH]1 (stereo not drawn) [Sulmazole] (20 µM)
Output line: 0.951

Input line: // query fold change of Putrescine concentration value for entry Clc1ccccc1CN1CCc2sccc2C1 [Ticlopidine hydrochloride] (20 µM)
Output line: 1.01

Input line: // query fold change of Putrescine concentration value for entry O=c1cc(-c2ccc(O)c(O)c2)oc2cc(O)cc(O)c12 [Luteolin] (20 µM)
Output line: 1.07

The values you see were collected from the supplement of paper PMC12494721.
